Test: Pharmacokinetic study of plasma melatonin after single oral dose of lentil sprouts extract
Conditions: Sprague Dawley, rat, plasma, po, 50 ug/kg

| Structure String | CL/F, L/h/kg |
| --- | --- |
| COc1ccc2[nH]cc(CCNC(C)=O)c2c1 | 330 |

* * *

Experiment: Pharmacokinetic study of plasma melatonin after single oral dose of lentil sprouts extract
Settings: Sprague Dawley, rat, in vivo, po, 50 ug/kg

| Structure String | half-life / h |
| --- | --- |
| COc1ccc2[nH]cc(CCNC(C)=O)c2c1 | 1.82 |

* * *

Assay: Pharmacokinetic study of plasma melatonin after single oral dose of lentil sprouts extract
Details: Sprague Dawley, rat, plasma, po, 50 ug/kg

| Molecule | half-life |
| --- | --- |
| COc1ccc2[nH]cc(CCNC(C)=O)c2c1 [melatonin, N-acetyl-5-methoxytryptamine] | ~1.67 h |

* * *

Assay: in vivo
Details: Sprague Dawley, rat, plasma, po, 50 ug/kg
Measured Metric: Cmax (ng/mL)

| Structure String | Quantitative Readout |
| --- | --- |
| COc1ccc2[nH]cc(CCNC(C)=O)c2c1 | 0.0454 |

* * *

Experiment: Pharmacokinetic study of plasma melatonin after single oral dose of lentil sprouts extract
Conditions: Sprague Dawley, rat, plasma, po, 50 ug/kg

| Structure String | k el [s⁻¹] |
| --- | --- |
| COc1ccc2[nH]cc(CCNC(C)=O)c2c1 | 0.000108 |
